settings: buffer; pH 7.4; 200.0 µM
Overview of reported solubility kinetic across a group of compounds:

[
  {
    "compound": "COc1cccc(Oc2nc(-c3ccccc3O)nc3ccccc23)c1",
    "solubility kinetic": "< 0.4 µg/mL"
  }
]

Now for the compound whose solubility kinetic we want.
Lab book: solubility kinetic of CN1CCC(N(C)CC(O)c2ccccc2)CC1.O=C(O)C(=O)O (centres undefined) noted as > 50.8 µg/mL

###

conditions: buffer; pH 7.4; 200.0 µM
readoutName: solubility kinetic (µg/mL)
Your answer is read as µg/mL, so omit the unit and give the number.

// below: answered molecules
[
  {
    "molecule": "CCNC(=O)COC(=O)CCNC(=O)c1cccc(C)c1",
    "valueUnit": "µg/mL",
    "solubility kinetic": 35.1
  },
  {
    "molecule": "COc1cc(NC(=O)COC(=O)CC2CC3CCC2C3)cc(OC)c1 (stereo not given)",
    "valueUnit": "µg/mL",
    "solubility kinetic": 14.6
  },
  {
    "molecule": "CSc1nc(C)c(Cc2c(F)cccc2Cl)c(=O)[nH]1",
    "valueUnit": "µg/mL",
    "solubility kinetic": 1
  }
]

Lab book: solubility kinetic of `Cc1cc(Cl)cc(Cl)c1OCCN1CCCC1` noted as 30.2

Lab book: solubility kinetic of `CSc1nsc(NC(=O)OCc2ccc(Cl)cc2)n1` noted as 8.4

Lab book: solubility kinetic of `Cc1ccc(C(=O)CCC(=O)Nc2ccccc2C)c(C)c1` noted as 1.3

Lab book: solubility kinetic of `COc1ccc(N2CCOCC2)c(NC(=O)c2cccc3ccccc23)c1` noted as 6

Lab book: solubility kinetic of `O=C(c1cccc2nc3ccccc3nc12)N1CCOCC1` noted as 40.9

Lab book: solubility kinetic of `COc1ccc(COC(=O)CCc2c[nH]c3ccccc23)cc1F` noted as 7.7

Lab book: solubility kinetic of `CCn1cc(C=C2C(=O)N(C)C(=O)N(C)C2=O)c2ccccc21` noted as 1

Lab book: solubility kinetic of `CCc1ccc(C(=O)OCC(=O)NCC(F)(F)F)cc1` noted as 17.9

Lab book: solubility kinetic of `O=C1CCC/C1=C/Nc1cccc(F)c1` noted as 23.6

Lab book: solubility kinetic of `N#C/C(=C\c1cccc(O)c1)C(=O)Nc1ccc2c(c1)OCCO2` noted as 2

Lab book: solubility kinetic of `COc1ccc(CCN2C(=O)CSC2=S)cc1OC` noted as 6.1

Lab book: solubility kinetic of `O=S(=O)(NC1CCCCC1)c1cccc2nsnc12` noted as 31.6

Lab book: solubility kinetic of CC1(CCc2ccccc2)NC(=O)N(CC(=O)O)C1=O (stereo not given) noted as 16.6

Lab book: solubility kinetic of `Cc1oc(S(=O)(=O)N2CCCC2)cc1C(=O)Nc1ccccc1` noted as 4.3

###

conditions: buffer; pH 7.4; 200.0 µM
readoutName: solubility kinetic

[
  {
    "compound": "Cc1nn(C)cc1S(=O)(=O)Nc1ccc(C(F)(F)F)cc1",
    "solubility kinetic": "> 47.9 µg/mL"
  },
  {
    "compound": "CCOc1ccccc1NC(=O)COc1ccc2c(c1)OCO2",
    "solubility kinetic": "< 0.7 µg/mL"
  },
  {
    "compound": "Cc1cnc([N+](=O)[O-])n1CCOC(=O)NC(=O)c1c(F)cccc1F",
    "solubility kinetic": "> 53.1 µg/mL"
  }
]

Lab book: solubility kinetic of `O=C(c1ccccn1)N1CCN(S(=O)(=O)c2ccccc2)CC1` noted as > 49.7 µg/mL

Lab book: solubility kinetic of `COc1ccc(-n2nc3c(c2NC(C)=O)CS(=O)(=O)C3)cc1` noted as > 48.2 µg/mL

Lab book: solubility kinetic of `CC(=O)N1CCN(S(=O)(=O)c2ccc(Cl)cc2F)CC1` noted as > 48.1 µg/mL

Lab book: solubility kinetic of O=C(O)c1ccc(S(=O)(=O)N(Cc2cccs2)CC2CCCO2)cc1 (stereo unspecified) noted as > 57.2 µg/mL

Lab book: solubility kinetic of `CCS(=O)(=O)N1CCN=C1SCc1cccc(F)c1` noted as > 45.4 µg/mL

Lab book: solubility kinetic of `COC(=O)c1c(C(C)=O)c(C)n(C)c1C` noted as > 31.4 µg/mL

###

Overview of reported log10 solubility kinetic across a group of molecules:
conditions: buffer; pH 7.4; 200.0 µM
Please interpret these as log10 of solubility kinetic where solubility kinetic is in µg/mL.

// below: answered molecules
[
  {
    "molecule": "CC(C(=O)NCC1CCCCC1)N(C)Cc1cccc(Cl)c1 (centres undefined)",
    "log10 solubility kinetic": 1.36
  },
  {
    "molecule": "O=C(Cc1ccccc1)Nc1ccc(NC(=O)c2ccccc2)nc1",
    "log10 solubility kinetic": 0.72
  },
  {
    "molecule": "NC(=O)C1CCN(C(=O)/C=C/c2cc(Br)ccc2F)CC1",
    "log10 solubility kinetic": 1.68
  },
  {
    "molecule": "CCc1cccc(C)c1NS(=O)(=O)c1cccs1",
    "log10 solubility kinetic": 1.16
  }
]

Lab book: log10 solubility kinetic of `Cc1cc(C)nc(NC(=O)Nc2ccc(F)cc2F)n1` noted as 1.01

Lab book: log10 solubility kinetic of `CCOc1cc(N2CCOCC2)c(OCC)cc1NC(=O)c1cnccn1` noted as 1.08

Lab book: log10 solubility kinetic of `S=C(NCc1ccccc1)Nc1nccs1` noted as 0.48

Lab book: log10 solubility kinetic of `COC(=O)c1c(C)oc(C)c1S(=O)(=O)NCc1ccc(Cl)cc1` noted as 0.70

Lab book: log10 solubility kinetic of `COc1ccc2c([N+](=O)[O-])c(N3CCCC3)[nH]c2c1` noted as 1.58

Lab book: log10 solubility kinetic of COC(=O)c1ccc(C2NC(=O)c3ccccc3O2)cc1 (centres undefined) noted as 0.72

###

conditions: buffer; pH 7.4; 200.0 µM
readoutName: solubility kinetic (µg/mL)
Your answer is read as µg/mL, so omit the unit and give the number.

// below: answered molecules
[
  {
    "molecule": "NC(=S)c1cc2cc(Cl)ccc2oc1=O",
    "valueUnit": "µg/mL",
    "solubility kinetic": 1.6
  },
  {
    "molecule": "Fc1ccc(N2CCN(Cc3cnc(Cl)s3)CC2)cc1",
    "valueUnit": "µg/mL",
    "solubility kinetic": 45.9
  },
  {
    "molecule": "CCSc1ccc(/C(N)=N/OC(=O)c2cccs2)cn1",
    "valueUnit": "µg/mL",
    "solubility kinetic": 0.3
  },
  {
    "molecule": "O=C(NCC1CCCO1)c1cccc(Oc2ccccc2)c1 (configuration not stated)",
    "valueUnit": "µg/mL",
    "solubility kinetic": 40.1
  },
  {
    "molecule": "Cc1ccc(S(=O)(=O)NC(C)C(=O)Nc2cccc([N+](=O)[O-])c2)cc1 (configuration not stated)",
    "valueUnit": "µg/mL",
    "solubility kinetic": 8.9
  },
  {
    "molecule": "COc1ccc(C(=O)NCCSCc2ccc(Cl)cc2)cc1OC",
    "valueUnit": "µg/mL",
    "solubility kinetic": 3.9
  },
  {
    "molecule": "CCC(=O)NC(c1ccc(C)cc1)c1ccc2cccnc2c1O (configuration not stated)",
    "valueUnit": "µg/mL",
    "solubility kinetic": 1.6
  },
  {
    "molecule": "COc1ccc2[nH]c(=O)c(CN(C(=O)c3cccnc3)c3cccc(C)c3)cc2c1",
    "valueUnit": "µg/mL",
    "solubility kinetic": 3.9
  }
]

Lab book: solubility kinetic of `Clc1ccc(SCc2csc(N3CCOCC3)n2)cc1` noted as 10.2

Lab book: solubility kinetic of CC(=O)N1CCc2ccccc2C1CC(=O)O (configuration not stated) noted as 32.7

###

conditions: buffer; pH 7.4; 200.0 µM
Overview of reported solubility kinetic across a group of compounds:

// below: answered compounds
[
  {
    "compound": "COc1cccc(NC(=O)c2c([N+](=O)[O-])cnn2C)c1",
    "solubility kinetic": "> 41.4 µg/mL"
  },
  {
    "compound": "O=C(O)Cc1ccc(S(=O)(=O)N2CCCC2)s1",
    "solubility kinetic": "> 41.3 µg/mL"
  },
  {
    "compound": "O=C(O)Cn1cc(C(=O)C(F)(F)F)c2ccccc21",
    "solubility kinetic": "> 40.7 µg/mL"
  },
  {
    "compound": "Cc1ccc(C)c(Nc2cc(C)nc3ccccc23)c1",
    "solubility kinetic": "> 39.4 µg/mL"
  }
]

Lab book: solubility kinetic of `Cc1cccc(NC(=O)Nc2cccnc2)c1C` noted as > 36.2 µg/mL

Lab book: solubility kinetic of COc1ccc(NS(=O)(=O)c2ccc(N3CCCCC3)c(NC(=O)C(C)NC(N)=O)c2)cc1 (centres undefined) noted as > 71.3 µg/mL

Lab book: solubility kinetic of `COc1ccccc1C(=O)NCc1ccccn1` noted as > 36.3 µg/mL

Lab book: solubility kinetic of `CC(=O)Cc1cc2cc([N+](=O)[O-])ccc2oc1=O` noted as > 37.1 µg/mL

Lab book: solubility kinetic of `O=C(Nc1ccc2oc(-c3ccccc3F)nc2c1)c1ccccc1F` noted as < 0.4 µg/mL

Lab book: solubility kinetic of `CCn1c(=O)c(-c2nc3ccccc3[nH]2)c(O)c2ccccc21` noted as < 0.2 µg/mL

Lab book: solubility kinetic of `Cc1c(C(=O)O)c(C(=O)O)nc2ccc(N3CCOCC3)cc12` noted as > 47.4 µg/mL
